Data provenance is patent US11180483B2.

Could you please report measured EC50 for the items listed next?
# Tested on: Bmi-1
# test.summary: Sandwich ELISA Assay (Bmi-1 ELISA) in HT-1080 cells
# Format: cell-based
# Protocol: Cell Seeding and Compound Treatment (Day 1): HT-1080 cells were seeded at 8000 cells/well (50 μL) in 96-well tissue culture plates. […] The plate was washed and blotted dry as previously described, then prepared TMB substrate (TMB substrate kit, Pierce catalog #34021) (prepared by mixing kit reagents 1:1) (100 μL) was added per well. […] The plates were read at OD450 (experimental) and OD570 (reference).

Prompt: Consider the molecule CCc1nc2ccccc2n1-c1nc(N)c(F)c(Nc2ccc(OC)cc2)n1 and give its measured EC50.
Completion: 0.001 to 0.01 µM

Prompt: Consider the molecule COc1ccc(Nc2ccnc(-c3c(C(F)(F)F)nc4ccccn34)n2)cc1 and give its measured EC50.
Completion: 0.01 to 0.1 µM

Prompt: Consider the molecule Cc1ccc(Nc2nc(-n3c(C)nc4cc([N+](=O)[O-])ccc43)nc(N)c2F)cc1 and give its measured EC50.
Completion: 0.01 to 0.1 µM

Prompt: Consider the molecule Nc1cc(Nc2ccc(OC(F)F)c(F)c2)nc(-n2c(C3CC3)nc3ccc(F)cc32)n1 and give its measured EC50.
Completion: 0.01 to 0.1 µM

Prompt: Consider the molecule CSc1nc2ccccc2n1-c1nc(N)cc(Nc2ccc(C(F)(F)F)cc2)n1 and give its measured EC50.
Completion: 0.1 to 3 µM

###

Could you please report measured pEC50 for the items listed next?
# Test system: Bmi-1
# test.summary: Sandwich ELISA Assay (Bmi-1 ELISA) in HT-1080 cells
# Format: cell-based
pEC50: −log10 of the molar value.

Prompt: Consider the compound COc1ccc2nc(C)n(-c3nc(N)c(F)c(Nc4ccc(Cl)cc4)n3)c2c1 and give its measured pEC50.
Completion: 7.00 to 8.00

Prompt: Consider the compound CCc1nn2ccc(F)cc2c1-c1nc(N)c(F)c(Nc2ccc(OC(F)F)cc2)n1 and give its measured pEC50.
Completion: 5.52 to 7.00

Prompt: Consider the compound COc1ccc2nc(C)n(-c3nc(N)c(F)c(Nc4ccc(C)cc4)n3)c2c1 and give its measured pEC50.
Completion: 7.00 to 8.00

Prompt: Consider the compound COc1ccc(Nc2nc(-n3c(C)nc4ccc(OC)cc43)nc(N)c2F)cc1 and give its measured pEC50.
Completion: 7.00 to 8.00

Prompt: Consider the compound FC(F)(F)c1ccc(Nc2ccnc(-c3c(C(F)(F)F)nc4cnccn34)n2)cc1 and give its measured pEC50.
Completion: 5.52 to 7.00

Prompt: Consider the compound Cc1nc2cc(F)c(F)cc2n1-c1nc(N)c(F)c(Nc2ccc(Cl)cc2)n1 and give its measured pEC50.
Completion: 5.52 to 7.00

Prompt: Consider the compound Cc1nc2cc(F)ccc2n1-c1nc(N)c(F)c(Nc2ccc(C(F)(F)F)cc2)n1 and give its measured pEC50.
Completion: 5.52 to 7.00

Prompt: Consider the compound Cc1nc2ncc(Cl)cc2n1-c1nc(N)c(F)c(Nc2ccc(OC(F)F)cc2)n1 and give its measured pEC50.
Completion: 7.00 to 8.00

Prompt: Consider the compound CCc1nc2ccccc2n1-c1nc(N)c(Cl)c(Nc2ccc(OC(F)F)cc2)n1 and give its measured pEC50.
Completion: 5.52 to 7.00

Prompt: Consider the compound COc1ccc(Nc2nc(-n3c(C)nc4cc(F)ccc43)nc(N)c2F)cc1 and give its measured pEC50.
Completion: 8.00 to 9.00

Prompt: Consider the compound Cc1nc2cc(F)c(F)cc2n1-c1nc(N)c(F)c(Nc2ccc(C(F)(F)F)cc2)n1 and give its measured pEC50.
Completion: 5.52 to 7.00

Prompt: Consider the compound Nc1cc(Nc2ccc(C(F)(F)F)cc2)nc(-n2c(C3CC3)nc3ccc(F)cc32)n1 and give its measured pEC50.
Completion: 7.00 to 8.00

Prompt: Consider the compound Cc1nc2c(F)cccc2n1-c1nc(N)c(F)c(Nc2ccc(OC(F)F)cc2)n1 and give its measured pEC50.
Completion: 7.00 to 8.00

Prompt: Consider the compound Cc1nc2ccccc2n1-c1nc(N)cc(Nc2ccc(OC(F)F)cc2)n1 and give its measured pEC50.
Completion: 7.00 to 8.00

Prompt: Consider the compound Cc1ccc(Nc2nc(-n3c(C)nc4cc(F)ccc43)nc(N)c2F)cc1 and give its measured pEC50.
Completion: 8.00 to 9.00

Prompt: Consider the compound COc1ccc(Nc2ccnc(-c3c(C(F)(F)F)nc4ccc(F)cn34)n2)cc1 and give its measured pEC50.
Completion: 7.00 to 8.00

Prompt: Consider the compound Cc1nc2ncccc2n1-c1nc(N)c(F)c(Nc2ccc(C(F)(F)F)cc2)n1 and give its measured pEC50.
Completion: 7.00 to 8.00

Prompt: Consider the compound Cc1nc2ccccc2n1-c1nc(N)c(F)c(Nc2ccc(C#N)cc2)n1 and give its measured pEC50.
Completion: 5.52 to 7.00

Prompt: Consider the compound Cc1nc2ccc(F)cc2n1-c1nc(N)cc(Nc2ccc(OC(F)F)c(F)c2)n1 and give its measured pEC50.
Completion: 7.00 to 8.00

Prompt: Consider the compound Cc1ccc(Nc2cc(N)nc(-n3c(C)nc4ccc(F)cc43)n2)cc1 and give its measured pEC50.
Completion: 8.00 to 9.00

Prompt: Consider the compound COc1ccc2nc(C(F)(F)F)c(-c3nccc(Nc4ccc(C(F)(F)F)cc4)n3)n2c1 and give its measured pEC50.
Completion: 5.52 to 7.00

Prompt: Consider the compound Cc1nc2ncc(Cl)cc2n1-c1nc(N)c(F)c(Nc2ccc(OC(F)F)c(F)c2)n1 and give its measured pEC50.
Completion: 7.00 to 8.00

Prompt: Consider the compound Cc1nc2ccccn2c1-c1nccc(Nc2ccccc2)n1 and give its measured pEC50.
Completion: 7.00 to 8.00

Prompt: Consider the compound Cc1nc2ccccc2n1-c1nc(N)cc(Nc2ccc(OC(F)(F)F)cc2)n1 and give its measured pEC50.
Completion: 5.52 to 7.00

Prompt: Consider the compound COc1ccc(Nc2ccnc(-c3c(C(F)(F)F)nc4ccc(Br)cn34)n2)cc1 and give its measured pEC50.
Completion: 7.00 to 8.00

Prompt: Consider the compound CCc1nc2c(F)cc(F)cc2n1-c1nc(N)c(F)c(Nc2ccc(C(F)(F)F)cc2)n1 and give its measured pEC50.
Completion: 7.00 to 8.00

Prompt: Consider the compound Cc1nc2ccc(F)cn2c1-c1nc(N)cc(Nc2ccc(C(F)(F)F)cc2)n1 and give its measured pEC50.
Completion: 7.00 to 8.00

Prompt: Consider the compound Cc1nc2ccc(F)cn2c1-c1nc(N)cc(Nc2ccc(OC(F)F)cc2)n1 and give its measured pEC50.
Completion: 7.00 to 8.00

Prompt: Consider the compound Cc1nc2ccc(C#N)cc2n1-c1nc(N)c(F)c(Nc2ccc(C(F)(F)F)cc2)n1 and give its measured pEC50.
Completion: 5.52 to 7.00

Prompt: Consider the compound COc1ccc2nc(C)n(-c3nc(N)c(F)c(Nc4ccc(OC(F)F)cc4)n3)c2c1 and give its measured pEC50.
Completion: 7.00 to 8.00

Prompt: Consider the compound Nc1nc(-n2c(C3CC3)nc3c(F)cccc32)nc(Nc2ccc(OC(F)F)cc2)c1F and give its measured pEC50.
Completion: 7.00 to 8.00

Prompt: Consider the compound COCc1nc2ccccc2n1-c1nc(N)c(F)c(Nc2ccc(OC)cc2)n1 and give its measured pEC50.
Completion: 8.00 to 9.00

Prompt: Consider the compound FC(F)Oc1ccc(Nc2ccnc(-c3c(C(F)(F)F)nc4cnccn34)n2)cc1 and give its measured pEC50.
Completion: 5.52 to 7.00

Prompt: Consider the compound CCc1nc2ccc(F)cc2n1-c1nc(N)cc(Nc2ccc(OC(F)F)c(F)c2)n1 and give its measured pEC50.
Completion: 7.00 to 8.00

Prompt: Consider the compound Cc1nc2ccccc2n1-c1nc(NCCO)cc(Nc2ccc(OC(F)F)cc2)n1 and give its measured pEC50.
Completion: 5.52 to 7.00

Prompt: Consider the compound Cc1ccc(Nc2nc(-n3c(C)nc4c(F)cc(F)cc43)nc(N)c2F)cc1 and give its measured pEC50.
Completion: 7.00 to 8.00
